TARGET OF ASSAY: Calcium Sensing Receptor (CaSR) (Homo sapiens)
ASSAY METHOD TEXT: In-vitro assay of calcimimetics through modulation of Calcium Sensing Receptor (intracellular calcium, FLIPR)
EXPERIMENTAL SETUP: HEK293 cells stably expressing hCaSR, increase in intracellular calcium, Fluo4NW dye, 0.3 mM CaCl2, 8-point assay, read-out: EC50 Range
Structures can show the parent of a compound that is named as a salt.
Reported values of EC50 for individual entries

C[C@@H](NCCC[C@H]1C[C@@H](c2ccc(C(=O)O)cc2)c2ccccc2O1)c1ccc(F)c2ccccc12 [Example 136, hydrochloride]    < 20 nM
COc1cc(C(=O)O)ccc1[C@@H]1C[C@H](CN[C@H](C)c2cccc3ccccc23)Oc2ccccc21 [Example 102b, hydrochloride]    < 20 nM
Cc1c(C(=O)O)ccc(F)c1[C@H]1C[C@H](CN[C@H](C)c2cccc3ccccc23)Oc2ccccc21 [Example 81a, hydrochloride]    50 to 200 nM
Cc1ccc([C@@H]2C[C@H](CN[C@H](C)c3ccc(F)c4ccccc34)Oc3ccccc32)cc1C(=O)O [Example 119b, hydrochloride]    < 20 nM
COc1cc([C@@H](C)NC[C@H]2C[C@@H](c3ccc(C(=O)O)c(C)c3)c3ccccc3O2)ccc1F [Example 114, hydrochloride]    50 to 200 nM

// moving on: another record for EC50
# EC50 of C[C@@H](NC[C@H]1C[C@H](c2ccc(C(C)(C)C(=O)O)cc2)c2ccccc2O1)c1cccc2ccccc12 [Example 108a, hydrochloride] = 50 to 200 nM

###

TARGET OF ASSAY: Calcium Sensing Receptor (CaSR) (Homo sapiens, UniProt P41180)
Sequence (P41180 20-1078): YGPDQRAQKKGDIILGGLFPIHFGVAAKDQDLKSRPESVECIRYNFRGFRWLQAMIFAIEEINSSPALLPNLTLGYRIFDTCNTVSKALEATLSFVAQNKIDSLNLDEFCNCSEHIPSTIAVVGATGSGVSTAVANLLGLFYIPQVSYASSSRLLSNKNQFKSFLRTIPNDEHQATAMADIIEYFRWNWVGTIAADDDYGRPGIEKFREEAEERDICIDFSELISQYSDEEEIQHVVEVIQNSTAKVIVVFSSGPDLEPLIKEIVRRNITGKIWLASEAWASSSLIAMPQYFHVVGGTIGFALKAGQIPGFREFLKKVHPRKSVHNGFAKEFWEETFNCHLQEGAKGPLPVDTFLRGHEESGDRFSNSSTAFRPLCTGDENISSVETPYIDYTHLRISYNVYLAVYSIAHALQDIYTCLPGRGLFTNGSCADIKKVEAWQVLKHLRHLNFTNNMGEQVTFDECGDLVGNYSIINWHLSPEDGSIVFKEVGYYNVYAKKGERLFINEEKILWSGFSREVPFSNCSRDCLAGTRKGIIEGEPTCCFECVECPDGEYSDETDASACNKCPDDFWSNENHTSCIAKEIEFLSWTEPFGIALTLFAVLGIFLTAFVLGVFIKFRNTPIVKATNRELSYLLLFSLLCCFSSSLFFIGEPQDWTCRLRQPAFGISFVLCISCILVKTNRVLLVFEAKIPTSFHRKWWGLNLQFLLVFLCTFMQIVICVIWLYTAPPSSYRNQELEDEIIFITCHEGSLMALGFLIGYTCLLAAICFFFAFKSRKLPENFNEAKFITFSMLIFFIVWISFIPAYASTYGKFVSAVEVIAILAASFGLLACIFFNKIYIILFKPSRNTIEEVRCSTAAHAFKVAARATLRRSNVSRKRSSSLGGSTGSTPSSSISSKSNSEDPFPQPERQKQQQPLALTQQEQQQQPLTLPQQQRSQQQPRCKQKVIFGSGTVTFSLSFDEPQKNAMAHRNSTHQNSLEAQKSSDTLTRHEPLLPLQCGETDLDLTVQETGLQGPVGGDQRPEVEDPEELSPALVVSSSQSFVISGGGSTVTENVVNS
ASSAY METHOD TEXT: In-vitro assay of calcimimetics through modulation of Calcium Sensing Receptor (intracellular calcium, FLIPR)
EXPERIMENTAL SETUP: HEK293 cells stably expressing hCaSR, increase in intracellular calcium, Fluo4NW dye, 0.3 mM CaCl2, 8-point assay, read-out: EC50 Range
Structures can show the parent of a compound that is named as a salt.
MEASUREMENT NAME: EC50

For orientation, consider the following solved cases.
Cc1ccc([C@@H]2C[C@H](CN[C@H](C)c3cccc4ccccc34)Oc3ccccc32)cc1OCC(=O)O [Example 91, hydrochloride]    < 0.02 µM
C[C@@H](NC[C@H]1C[C@@H](c2ccc(C(=O)O)cc2)c2ccccc2O1)c1cccc2ccccc12 [Example 98b, hydrochloride]    0.05 to 0.2 µM

# EC50 (compound: Cc1c(C(=O)O)ccc(F)c1[C@@H]1C[C@H](CN[C@H](C)c2cccc3ccccc23)Oc2ccccc21 [Example 81b, hydrochloride] ) is < 0.02 µM

Entry Cc1cc([C@@H]2C[C@H](CN[C@H](C)c3cccc4ccccc34)Oc3ccccc32)ccc1C(=O)O [Example 99b, hydrochloride] ; EC50 = < 0.02 µM

response.value for C[C@@H](NC[C@H]1C[C@@H](c2cccc(OC(C)(C)C(=O)O)c2)c2ccccc2O1)c1cccc2ccccc12 [Example 97, hydrochloride] (field: EC50) = 0.02 to 0.05 µM

Lab book: EC50 of CCN(C)C(=O)c1cc([C@@H]2C[C@H](CN[C@H](C)c3cccc4ccccc34)Oc3ccccc32)ccc1C [Example 145, hydrochloride] noted as 0.05 to 0.2 µM

Noted for C[C@@H](NC[C@H]1C[C@@H](c2ccc(C(=O)O)c(F)c2)c2ccccc2O1)c1cccc2ccccc12 [Example 104, hydrochloride] : its EC50 reads < 0.02 µM

Sure, the documented EC50 for C[C@@H](NC[C@H]1C[C@@H](c2ccc(C(F)(F)F)c(C(=O)O)c2)c2ccccc2O1)c1cccc2ccccc12 [Example 83, hydrochloride] is < 0.02 µM

Reported EC50 ( C[C@@H](NC[C@H]1C[C@H](c2ccc(F)c(OCC(=O)O)c2)c2ccccc2O1)c1cccc2ccccc12 [Example 93a, hydrochloride] ) = < 0.02 µM

So for C[C@@H](NC[C@H]1C[C@@H](c2ccc(CC(=O)O)cc2)c2ccccc2O1)c1cccc2ccccc12 [Example 107b, hydrochloride] , the logged EC50 turned out to be 0.02 to 0.05 µM

# EC50 (compound: COc1cc([C@@H](C)NC[C@H]2C[C@@H](c3ccc(C)c(C(=O)O)c3)c3ccccc3O2)ccc1F [Example 116, hydrochloride] ) is 0.05 to 0.2 µM

The recorded EC50 for Cc1ccc([C@@H]2C[C@H](CCN[C@H](C)c3cccc4ccccc34)Oc3ccccc32)cc1C(=O)O [Example 124, hydrochloride] is < 0.02 µM

get_value(item= COc1c(C(=O)O)cccc1[C@@H]1C[C@H](CN[C@H](C)c2cccc3ccccc23)Oc2ccccc21 [Example 89b, hydrochloride] , readout=EC50) returns < 0.02 µM
